System: Myotonic Dystrophy 1 affected patient fibroblasts (Coriell GM04602; 1600 CTG repeats)
Assay: DM1 foci reduction assay (CAG10-Cy3 FISH, average foci per nucleus)
Type: cell-based
Conditions: Homo sapiens, Fibroblast, 48 h, read-out: Foci Reduction in Fibroblast EC50, 48 h (nM)
Outcome Measure: EC50

CCN(CC)CCCC[C@H](NC(=O)[C@H](CC(C)C)NC(=O)[C@H](C)NC(=O)[C@H](Cc1ccccc1)NC(=O)c1ccc(C(C)(C)C)cc1)C(=O)N[C@@H](CO)C(=O)NCCOCCOCCOCCOCCOCCNC(=O)c1cc(NC(=O)c2nc(NC(=O)[C@@H](CCNC(=O)c3cc(NC(=O)c4nc(NC(=O)CCNC(=O)c5cc(NC(=O)c6nccn6C)cn5C)cn4C)cn3C)NC(C)=O)cn2C)cn1C [Compound 112]	> 500 nM

Turning now to a further molecule:
Give Myotonic Dystrophy 1 affected patient fibroblasts (Coriell GM04602; 1600 CTG repeats) EC50 for CCN(CC)CCCC[C@H](NC(=O)[C@H](CC(C)C)NC(=O)[C@H](C)NC(=O)[C@H](Cc1ccccc1)NC(=O)c1ccc(C(C)(C)C)cc1)C(=O)N[C@@H](CO)C(=O)NCCOCCOCCOCCOCCNC(=O)CCNC(=O)c1nc(NC(=O)c2cc(NC(=O)CCNC(=O)c3nc(NC(=O)CCCNC(=O)c4cc(NC(=O)c5nc(NC(=O)CCNC(=O)c6cc(NC(=O)c7nccn7C)cn6C)cn5C)cn4C)cn3C)cn2C)cn1C [Compound 72]
< 100 nM
